Source: patent US7829560B2

Property: inhibition at 10 µM; scope: individual compounds
# TESTED_SYSTEM: p38α (Homo sapiens, UniProt Q16539)
# Construct: p38 MAP Kinases are recombinant human full-length proteins with an amino-terminal GST fusion; GST (N); purchased Upstate Biotechnology Inc; host or cells: E. coli
# Sequence (Q16539 whole entry, the tested form may be a part): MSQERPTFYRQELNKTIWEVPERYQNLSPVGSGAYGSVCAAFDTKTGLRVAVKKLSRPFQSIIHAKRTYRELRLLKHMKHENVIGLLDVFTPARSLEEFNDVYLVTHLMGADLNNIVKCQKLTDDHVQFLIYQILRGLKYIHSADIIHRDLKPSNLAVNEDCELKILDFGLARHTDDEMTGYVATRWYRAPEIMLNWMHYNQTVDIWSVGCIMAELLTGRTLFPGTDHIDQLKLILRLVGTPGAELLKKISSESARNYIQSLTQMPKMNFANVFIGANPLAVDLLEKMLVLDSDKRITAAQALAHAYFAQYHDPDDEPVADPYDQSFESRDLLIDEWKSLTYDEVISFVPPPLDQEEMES
# ASSAY_EXPLANATION: p38 MAP Kinase assay: inhibition of ATF2 phosphorylation, ELISA
# Type: biochemical
# EXPERIMENTAL_PARAMETERS: 10 uM; substrate ATF2; read-out: [ENZ] P38 ALPHA, PCT INH, ELISA (10 uM;ATF2) (Percent)
QUANTITY: inhibition at 10 µM (%)

# COMPOUND, TESTED_SYSTEM, QUANTITY, MEASURED_VALUE
measured = [
    ("O=C(Nc1ccc(OCCN2CCCCC2)c2ccccc12)c1ccc(CN2CCS(=O)(=O)CC2)cc1 [Compound B14]", "p38α (Homo sapiens, UniProt Q16539)", "inhibition at 10 µM", 6),
    ("O=C(Nc1ccc(OCCN2CCOCC2)c2ccccc12)c1cccc(-c2cc(Cl)cc(Cl)c2)c1 [Compound B96]", "p38α (Homo sapiens, UniProt Q16539)", "inhibition at 10 µM", 31),
    ("O=C(Nc1ccc(OCCN2CCC(O)CC2)c2ccccc12)c1cc(F)cc(N2CCCCC2)c1 [Compound B158]", "p38α (Homo sapiens, UniProt Q16539)", "inhibition at 10 µM", 72),
    ("CCN(C)c1cccc(C(=O)Nc2ccc(OCCN3CCOCC3)c3ccccc23)n1 [Compound B148]", "p38α (Homo sapiens, UniProt Q16539)", "inhibition at 10 µM", 15.5),
    ("Cc1cc(C(=O)Nc2ccc(OCCN3CCOCC3)c3ccccc23)cc(N2CCC(C)CC2)n1 [Compound B154]", "p38α (Homo sapiens, UniProt Q16539)", "inhibition at 10 µM", 71),
    ("COc1cc(-c2cccc(C(=O)Nc3ccc(OCCN4CCOCC4)c4ccccc34)c2)cc(OC)c1OC [Compound B112]", "p38α (Homo sapiens, UniProt Q16539)", "inhibition at 10 µM", 15),
    ("O=C(Nc1ccc(OCCN2CCOCC2)c2ccccc12)c1ccnc(N2CCC(N3CCCC3)CC2)c1 [Compound B125]", "p38α (Homo sapiens, UniProt Q16539)", "inhibition at 10 µM", 23.5),
    ("CC(C)(C)c1ccc(-c2cccc(C(=O)Nc3ccc(OCCN4CCOCC4)c4ccccc34)c2)cc1 [Compound B106]", "p38α (Homo sapiens, UniProt Q16539)", "inhibition at 10 µM", 0),
    ("O=C(Nc1ccc(OCCCN2CCOCC2)c2ccccc12)c1cc(F)cc(N2CCCCC2)c1 [Compound B161]", "p38α (Homo sapiens, UniProt Q16539)", "inhibition at 10 µM", 84),
    ("CC(=O)N1CCN(c2cc(C(=O)Nc3ccc(OCCN4CCOCC4)c4ccccc34)ccn2)CC1 [Compound B123]", "p38α (Homo sapiens, UniProt Q16539)", "inhibition at 10 µM", 50.5),
    ("O=C(Nc1ccc(OCCN2CCOCC2)c2ccccc12)c1cccc(-c2ccc(Cl)cc2Cl)c1 [Compound B95]", "p38α (Homo sapiens, UniProt Q16539)", "inhibition at 10 µM", 58),
    ("O=C(Nc1ccc(OCCN2CCOCC2)c2ccccc12)c1cccc(C(=O)c2ccccc2)c1 [Compound B78]", "p38α (Homo sapiens, UniProt Q16539)", "inhibition at 10 µM", 34),
    ("C[C@@H]1CN(CCOc2ccc(NC(=O)c3ccnc(Cl)c3)c3ccccc23)C[C@H](C)O1 [Compound B8]", "p38α (Homo sapiens, UniProt Q16539)", "inhibition at 10 µM", 36.5),
    ("Cc1cccc(-c2cccc(C(=O)Nc3ccc(OCCN4CCOCC4)c4ccccc34)c2)c1 [Compound B104]", "p38α (Homo sapiens, UniProt Q16539)", "inhibition at 10 µM", 66),
    ("C[C@@H]1CN(CCOc2ccc(NC(=O)c3ccnc(N4CCOCC4)c3)c3ccccc23)C[C@H](C)O1 [Compound B23]", "p38α (Homo sapiens, UniProt Q16539)", "inhibition at 10 µM", 38),
    ("O=C(Nc1ccc(OCCN2CCOCC2)c2ccccc12)c1ccnc(N2CCC(CO)CC2)c1 [Compound B131]", "p38α (Homo sapiens, UniProt Q16539)", "inhibition at 10 µM", 34),
    ("Cc1cc(C(=O)Nc2ccc(OCCN3CCOCC3)c3ccccc23)cc(N2CCSC2)n1 [Compound B151]", "p38α (Homo sapiens, UniProt Q16539)", "inhibition at 10 µM", 0),
    ("CCCC/C=C/c1cccc(C(=O)Nc2ccc(OCCN3CCOCC3)c3ccccc23)c1 [Compound B99]", "p38α (Homo sapiens, UniProt Q16539)", "inhibition at 10 µM", 45),
    ("O=C(Nc1ccc(OCCN2CCOCC2)c2ccccc12)c1ccnc(N2CCC(N3CCCCC3)CC2)c1 [Compound B129]", "p38α (Homo sapiens, UniProt Q16539)", "inhibition at 10 µM", 19.5),
    ("CCOC(=O)N1CCN(CCOc2ccc(NC(=O)c3ccc(CN4CCS(=O)(=O)CC4)cc3)c3ccccc23)CC1 [Compound B16]", "p38α (Homo sapiens, UniProt Q16539)", "inhibition at 10 µM", 27.5),
    ("Cc1cccc(C)c1N1CCN(c2cccc(C(=O)Nc3ccc(OCCN4CCOCC4)c4ccccc34)n2)CC1 [Compound B146]", "p38α (Homo sapiens, UniProt Q16539)", "inhibition at 10 µM", 7.5),
    ("O=C(Nc1ccc(OCCN2CCOCC2)c2ccccc12)c1cccc(N2CCC(CO)CC2)n1 [Compound B145]", "p38α (Homo sapiens, UniProt Q16539)", "inhibition at 10 µM", 11),
    ("O=C(Nc1ccc(OCCN2CCOCC2)c2ccccc12)c1ccnc(N2CCC(Cc3ccccc3)CC2)c1 [Compound B124]", "p38α (Homo sapiens, UniProt Q16539)", "inhibition at 10 µM", 7),
    ("Cc1cc(C(=O)Nc2ccc(OCCN3CCOCC3)c3ccccc23)cc(N2CCCC(C)C2)n1 (stereo not shown) [Compound B153]", "p38α (Homo sapiens, UniProt Q16539)", "inhibition at 10 µM", 88),
    ("Cc1cc(C(=O)Nc2ccc(OCCN3CCOCC3)c3ccccc23)nn1C [Compound B79]", "p38α (Homo sapiens, UniProt Q16539)", "inhibition at 10 µM", 1),
    ("CC(=O)N1CCN(c2cccc(C(=O)Nc3ccc(OCCN4CCOCC4)c4ccccc34)n2)CC1 [Compound B136]", "p38α (Homo sapiens, UniProt Q16539)", "inhibition at 10 µM", 10),
    ("O=C(Nc1ccc(OCCN2CCOCC2)c2ccccc12)c1cccc2ccccc12 [Compound B89]", "p38α (Homo sapiens, UniProt Q16539)", "inhibition at 10 µM", 29),
    ("O=C(Nc1ccc(OCCN2CCOCC2)c2ccccc12)c1ccc2ccccc2c1 [Compound B85]", "p38α (Homo sapiens, UniProt Q16539)", "inhibition at 10 µM", 66),
    ("O=C(Nc1ccc(OCCN2CCOCC2)c2ccccc12)c1cccc(-c2cc(F)cc(F)c2)c1 [Compound B103]", "p38α (Homo sapiens, UniProt Q16539)", "inhibition at 10 µM", 68),
    ("O=C(Nc1ccc(OCCN2CCOCC2)c2ccccc12)c1cccc(N2CCC(Cc3ccccc3)CC2)n1 [Compound B140]", "p38α (Homo sapiens, UniProt Q16539)", "inhibition at 10 µM", 4),
    ("CSc1ccccc1-c1cccc(C(=O)Nc2ccc(OCCN3CCOCC3)c3ccccc23)c1 [Compound B116]", "p38α (Homo sapiens, UniProt Q16539)", "inhibition at 10 µM", 54),
]
